- System: HSC-2
- assay info: Cytotoxicity against human HSC2 cells after 48 hrs by MTT assay
- Type: functional
- condition info: HSC-2, 48 h
So I've got a bunch of compounds here, and I need their CC50 values.
Answers are plain numbers, in µM.

Some entries whose results are on file:
{"smiles repr": "O=C(O[C@@H]1O[C@@H]2COC(=O)c3cc(O)c(O)c(O)c3-c3c(cc(O)c(O)c3O)C(=O)O[C@H]2[C@H](OC(=O)c2cc(O)c(O)c(O)c2)[C@H]1OC(=O)c1cc(O)c(O)c(O)c1Oc1cc2c(c(O)c1O)Oc1cc(cc(O)c1O)C(=O)O[C@@H]1O[C@H](CO)[C@@H](O)[C@H](OC(=O)c3cc(O)c(O)c(O)c3)[C@H]1OC2=O)c1cc(O)c(O)c(O)c1", "unit text": "µM", "CC50": 32.3}
{"smiles repr": "O=C1O[C@@H]2O[C@@H]3COC(=O)c4cc(O)c(O)c(O)c4-c4c(cc(O)c(O)c4O)C(=O)O[C@H]3[C@H](OC(=O)c3cc(O)c(O)c(O)c3)[C@H]2OC(=O)c2cc(Oc3c(C(=O)O)cc(O)c(O)c3O)c(O)c(O)c2Oc2cc1cc(O)c2O", "unit text": "µM", "CC50": 35}

Problem: Query (compound): `O=C(O)c1cc(O)c(O)c(Oc2c(C(=O)O[C@H]3[C@H](OC(=O)c4cc(O)c(O)c(O)c4)O[C@@H]4COC(=O)c5cc(O)c(O)c(O)c5-c5c(cc(O)c(O)c5O)C(=O)O[C@H]4[C@@H]3OC(=O)c3cc(O)c(O)c(O)c3O)cc(O)c(O)c2O)c1` ; field requested: CC50
Solution: 31.3

###

Could you please report measured CC50 for the items listed next?
- System: HSC-2
- assay info: Cytotoxicity against human HSC2 cells after 48 hrs by MTT assay
- Format: functional
- condition info: HSC-2, 48 h
Answers are plain numbers, in µM.

Sample answers from the record:
{"smiles repr": "O=C1O[C@@H]2O[C@@H]3COC(=O)c4cc(O)c(O)c(O)c4-c4c(cc(O)c(O)c4O)C(=O)O[C@H]3[C@H](OC(=O)c3cc(O)c(O)c(O)c3)[C@H]2OC(=O)c2cc(Oc3c(C(=O)O[C@@H]4[C@@H](OC(=O)c5cc(O)c(O)c(O)c5)[C@@H]5OC(=O)c6cc(O)c(O)c(O)c6-c6c(cc(O)c(O)c6O)C(=O)OC[C@H]5O[C@H]4O)cc(O)c(O)c3O)c(O)c(O)c2Oc2cc1cc(O)c2O", "study target": "HSC-2", "unit text": "µM", "CC50": 29.3}
{"smiles repr": "O=C(O[C@@H]1O[C@@H]2COC(=O)c3cc(O)c(O)c(O)c3-c3c(cc(O)c(O)c3O)C(=O)O[C@H]2[C@H](OC(=O)c2cc(O)c(O)c(O)c2)[C@H]1OC(=O)c1cc(O)c(O)c(O)c1Oc1cc2c(c(O)c1O)Oc1cc(cc(O)c1O)C(=O)O[C@@H]1O[C@@H]3COC(=O)c4cc(O)c(O)c(O)c4-c4c(cc(O)c(O)c4O)C(=O)O[C@H]3[C@H](OC(=O)c3cc(O)c(O)c(O)c3)[C@H]1OC2=O)c1cc(O)c(O)c(O)c1", "study target": "HSC-2", "unit text": "µM", "CC50": 91.7}

Then there is this compound:
Problem: Field request: CC50 | item: `O=C(O)c1cc(O)c(O)c(Oc2c(C(=O)O[C@@H]3[C@@H](OC(=O)c4cc(O)c(O)c(O)c4O)[C@@H]4OC(=O)c5cc(O)c(O)c(O)c5-c5c(cc(O)c(O)c5O)C(=O)OC[C@H]4O[C@H]3O)cc(O)c(O)c2O)c1`
Solution: 32.3
